Let's look at some variants and their measured normalized RNA/DNA level without ligand (log10).
B1: library; a variant is named by its letters at N, in order (parent)
chain: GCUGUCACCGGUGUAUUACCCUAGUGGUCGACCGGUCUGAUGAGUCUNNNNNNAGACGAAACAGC

Variants of: B1
EXPERIMENT: normalized RNA/DNA level without ligand (relative to sTRSVctl = 100) (log10 (% of sTRSVctl)); ligand: hypoxanthine (xanthine aptamer); higher = less ribozyme self-cleavage, higher mRNA level
RECORDED CONDITIONS: HEK293T, reporter: mCherry (pCS4076), ligand present: no
EXPERIMENTAL ENDPOINT: normalized RNA/DNA level without ligand (log10)

> print(dat)
   changes  number
1   AAGGAA    1.53
2   UGCUAC    1.85
3   CUGCGG     1.9
4   UAGAAG    1.47
5   CCAGGU    1.83
6   UCUUUA     1.9
7   ACUAGA    1.73
8   CCGACG    1.69

Sourced from the supplement of paper PMC6757056
